Tested on: KRAS G12C mutant NCI-H358 cells
measurement protocol: Cell proliferation inhibition experiment, 3D spheroid, CellTiter-Glo, NCI-H358
Type: cell-based, human
measurement parameters: Homo sapiens, NCI-H358, 120 h, NCI-H358 (KRAS G12C mutant) 3D spheroid, 5 days with compound, CellTiter-Glo; read-out: H358 IC50
Field: label. Allowed values: YES (IC50 < 10 nM) or NO (IC50 >= 10 nM).

Here's what some known entries look like.
- compound: "C=CC(=O)N1CCN2C(=O)c3c(N4C[C@@H](N(C)CCF)CC4(C)C)nc(-c4ccccc4F)c(Cl)c3OC[C@H]2C1 (single isomer, unassigned) [Z660-1]"
  class: "YES"
- compound: "C=CC(=O)N1CCN2C(=O)c3c(N4C[C@H](N5CCN(C)CC5)CC4(C)C)nc(-c4c(O)cccc4F)c(Cl)c3OC[C@H]2C1 (single isomer, unassigned) [Z469-2]"
  class: "YES"
- compound: "C=CC(=O)N1CCN2C(=O)c3c(N4CCN(S(C)(=O)=O)C[C@@H]4C)nc(-c4c(O)cccc4F)c(Cl)c3OC[C@H]2C1 [Z318-1]"
  class: "YES"

Turning to the following compound.
IN: Determine whether this compound shows IC50 lower than 10 nM (ties excluded): C=CC(=O)N1CCN2C(=O)c3c(N4CCN5CCCC5(C)C4)nc(-c4c(O)cccc4F)c(Cl)c3OC[C@H]2C1 (stereo partly shown) [Z339]
OUT: NO

---

target desc: KRAS G12C (Homo sapiens, UniProt P01116, G12C)
Sequence (P01116 1-188 isoform P01116-2 G12C): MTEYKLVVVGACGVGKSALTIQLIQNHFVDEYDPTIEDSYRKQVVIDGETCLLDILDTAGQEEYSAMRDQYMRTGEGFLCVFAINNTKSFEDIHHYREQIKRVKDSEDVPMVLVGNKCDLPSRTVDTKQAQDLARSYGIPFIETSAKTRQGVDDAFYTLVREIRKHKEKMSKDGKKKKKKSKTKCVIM
measurement protocol: KRAS G12C NEA-HTRF experiment (SOS1-catalyzed displacement of GDP by GTP)
pIC50: −log10 of the molar value.
Returns one of Condition met or Condition not met; Condition met when pIC50 is >= 7.

- compound: "C=CC(=O)N1CCN2C(=O)c3c(N4C[C@@H](N(C)C)CC4(C)C)nc(-c4ccccc4F)c(Cl)c3OC[C@H]2C1"
  class: "Condition met"
- compound: "C=CC(=O)N1CCN2C(=O)c3c(N4C[C@@H](N5CCN(C)CC5)CC4(C)C)nc(-c4c(F)cccc4Cl)c(Cl)c3OC[C@H]2C1 (single isomer, unassigned)"
  class: "Condition met"
- compound: "C=CC(=O)N1CCN2C(=O)c3c(N4C[C@H](N5CCN(C)CC5)CC4(C)C)nc(-c4ccccc4F)c(Cl)c3OC[C@H]2C1 (single isomer, unassigned)"
  class: "Condition met"
- compound: "C=CC(=O)N1CCN2C(=O)c3c(N4C[C@@H](N(C)C)CC4(C)C)nc(-c4c(O)cccc4F)c(Cl)c3OC[C@H]2C1 (single isomer, unassigned)"
  class: "Condition met"
- compound: "C=CC(=O)N1CCN2C(=O)c3c(N4C[C@@H](O)[C@@H]4C)nc(-c4c(O)cccc4F)c(Cl)c3OC[C@H]2C1 (single isomer, unassigned)"
  class: "Condition not met"
- compound: "C=CC(=O)N1CCN2C(=O)c3c(N4CC(N(C)CCOC)CC4(C)C)nc(-c4c(O)cccc4F)c(Cl)c3OCC2C1 (single isomer, unassigned)"
  class: "Condition met"
- compound: "C=CC(=O)N1CCN2C(=O)c3c(N4Cc5nncn5CC4C)nc(-c4c(O)cccc4F)c(Cl)c3OC[C@H]2C1 (some centres unmarked)"
  class: "Condition met"
- compound: "C=CC(=O)N1CCN2C(=O)c3c(N4C[C@@H](N(C)CC(F)(F)F)CC4(C)C)nc(-c4ccccc4F)c(Cl)c3OC[C@H]2C1 (single isomer, unassigned)"
  class: "Condition met"
- compound: "C=CC(=O)N1CCN2C(=O)c3c(N4CC(NC)CC4(C)C)nc(-c4ccccc4F)c(Cl)c3OC[C@H]2C1 (some centres unmarked)"
  class: "Condition met"
- compound: "C=CC(=O)N1CCN2C(=O)c3c(N4CCOC(C)(C)C4)nc(-c4c(O)cccc4F)c(Cl)c3OC[C@H]2C1"
  class: "Condition not met"

Turning to the following compound.
IN: Is reported pIC50 greater than or equal to 7 here: C=CC(=O)N1CCN2C(=O)c3c(N4C[C@H](O)CC4(C)C)nc(-c4c(F)ccc(F)c4O)c(F)c3OC[C@H]2C1 (single isomer, unassigned)
OUT: Condition not met

---

# maps each entry to its pIC50
Tested on: KRAS G12C mutant NCI-H358 cells
measurement protocol: Cell proliferation inhibition experiment, 3D spheroid, CellTiter-Glo, NCI-H358
Type: cell-based, human
measurement parameters: Homo sapiens, NCI-H358, 120 h, NCI-H358 (KRAS G12C mutant) 3D spheroid, 5 days with compound, CellTiter-Glo; read-out: H358 IC50
Method: […] NCI-H358 is a KRAS G12C mutant human non-small cell lung cancer cell line, cultured in 10% FBS RPMI-1640+1% PS culture medium; and A549 is a KRAS G12S mutant human lung adenocarcinoma cell line, cultured in 10% FBS F-12K+1% PS culture medium. Cells at logarithmic growth stage were taken, digested with trypsin-EDTA, then collected and counted. […] The cell proliferation inhibition rate IR (%)=(RLU control -RLU compound)/(RLU control -RLU blank) x100% was calculated. […]
A value of pIC50 is the negative decimal logarithm of a concentration given in moles per litre.

Before answering, review these 5 worked examples.
- compound: "C=CC(=O)N1CCN2C(=O)c3c(N4C[C@H](N5CCN(C)CC5)C[C@@H]4C)nc(-c4ccccc4F)c(Cl)c3OC[C@H]2C1 [Z470-1]"
  target desc: "KRAS G12C mutant NCI-H358 cells"
  pIC50: 7.64
- compound: "C=CC(=O)N1CCN2C(=O)c3c(N4C[C@@H](N(C)CCOC)C[C@@H]4C)nc(-c4c(O)cccc4F)c(Cl)c3OC[C@H]2C1 [Z358-1]"
  target desc: "KRAS G12C mutant NCI-H358 cells"
  pIC50: 8.32
- compound: "C=CC(=O)N1CCN2C(=O)c3c(N4CCN(C)C[C@@H]4C)nc(-c4c(F)ccc(Cl)c4O)c(Cl)c3OC[C@H]2C1 [Z342]"
  target desc: "KRAS G12C mutant NCI-H358 cells"
  pIC50: 8.02
- compound: "C=CC(=O)N1CCN2C(=O)c3c(N4CC(N5CCC(F)(F)C5)CC4(C)C)nc(-c4ccccc4F)c(Cl)c3OC[C@H]2C1 (stereo partly drawn) [Z532]"
  target desc: "KRAS G12C mutant NCI-H358 cells"
  pIC50: 8.24
- compound: "C=CC(=O)N1CCN2C(=O)c3c(N4CC(N5CC(F)C5)CC4(C)C)nc(-c4ccccc4F)c(Cl)c3OC[C@H]2C1 (single isomer, unassigned) [Z480-2]"
  target desc: "KRAS G12C mutant NCI-H358 cells"
  pIC50: 6.81

--- query ---
IN: State, in one line, measured pIC50 of C=CC(=O)N1CCN2C(=O)c3c(OC4CCN(C)CC4)nc(-c4c(O)cccc4F)c(Cl)c3OC[C@H]2C1 [Z61]
OUT: 7.48

---

# maps each entry to its pIC50
Tested on: KRAS G12C mutant NCI-H358 cells
measurement protocol: Cell proliferation inhibition experiment, 3D spheroid, CellTiter-Glo, NCI-H358
Type: cell-based, human
measurement parameters: Homo sapiens, NCI-H358, 120 h, NCI-H358 (KRAS G12C mutant) 3D spheroid, 5 days with compound, CellTiter-Glo; read-out: H358 IC50
A value of pIC50 is the negative decimal logarithm of a concentration given in moles per litre.

IN: Please report pIC50 with KRAS G12C mutant NCI-H358 cells for item C=CC(=O)N1CCN2C(=O)c3c(N4CC(O)CC4(C)C)nc(-c4c(O)cccc4F)c(Cl)c3OC[C@H]2C1 (some centres unmarked) .
OUT: 8.70

IN: Please report pIC50 with KRAS G12C mutant NCI-H358 cells for item C=CC(=O)N1CCN2C(=O)c3c(N4CCN5CCC[C@@H]5C4)nc(-c4c(O)cccc4F)c(Cl)c3OC[C@H]2C1 .
OUT: 7.63

IN: Please report pIC50 with KRAS G12C mutant NCI-H358 cells for item C=CC(=O)N1CCN2C(=O)c3c(Nc4c(C)ccnc4C(C)C)nc(-c4c(O)cccc4F)c(Cl)c3OC[C@H]2C1 .
OUT: 7.51

IN: Please report pIC50 with KRAS G12C mutant NCI-H358 cells for item C=CC(=O)N1CCN2C(=O)c3c(N4C[C@@H](N(C)CCO)CC4(C)C)nc(-c4ccccc4F)c(Cl)c3OC[C@H]2C1 (single isomer, unassigned) .
OUT: 9.00

IN: Please report pIC50 with KRAS G12C mutant NCI-H358 cells for item C=CC(=O)N1CCN2C(=O)c3c(N4CCO[C@@H](C)C4)nc(-c4c(O)cccc4F)c(Cl)c3OC[C@H]2C1 .
OUT: 7.30

IN: Please report pIC50 with KRAS G12C mutant NCI-H358 cells for item C=CC(=O)N1CCN2C(=O)c3c(N4CC(CO)CC4(C)C)nc(-c4c(O)cccc4F)c(Cl)c3OC[C@H]2C1 (some centres unmarked) .
OUT: 8.62

IN: Please report pIC50 with KRAS G12C mutant NCI-H358 cells for item C=CC(=O)N1CCN2C(=O)c3c(N4C[C@H](N(C)CCO)CC4(C)C)nc(-c4ccccc4F)c(Cl)c3OC[C@H]2C1 (single isomer, unassigned) .
OUT: 7.92

IN: Please report pIC50 with KRAS G12C mutant NCI-H358 cells for item C=CC(=O)N1CCN2C(=O)c3c(N4CCO[C@](C)(COC)C4)nc(-c4c(O)cccc4F)c(Cl)c3OC[C@H]2C1 (single isomer, unassigned) .
OUT: 7.80

IN: Please report pIC50 with KRAS G12C mutant NCI-H358 cells for item C=CC(=O)N1CCN2C(=O)c3c(N4CC[C@@H](N(C)C)C4(C)C)nc(-c4ccccc4F)c(Cl)c3OC[C@H]2C1 .
OUT: 7.53

IN: Please report pIC50 with KRAS G12C mutant NCI-H358 cells for item C=CC(=O)N1CCN2C(=O)c3c(N4CC(N(C)C5COC5)CC4(C)C)nc(-c4c(O)cccc4F)c(Cl)c3OC[C@H]2C1 (some centres unmarked) .
OUT: 9.15

IN: Please report pIC50 with KRAS G12C mutant NCI-H358 cells for item C=CC(=O)N1CCN2C(=O)c3c(OCC4CCN(C)CC4)nc(-c4c(O)cccc4F)c(Cl)c3OC[C@H]2C1 .
OUT: 7.04

IN: Please report pIC50 with KRAS G12C mutant NCI-H358 cells for item C=CC(=O)N1CCN2C(=O)c3c(N4C[C@@](C)(O)CC4(C)C)nc(-c4c(O)cccc4F)c(F)c3OC[C@H]2C1 (single isomer, unassigned) [Z256b-1] .
OUT: 8.55

IN: Please report pIC50 with KRAS G12C mutant NCI-H358 cells for item C=CC(=O)N1CCN2C(=O)c3c(N4CCN(C)C[C@@H]4C)nc(-c4c(F)cccc4C(F)F)c(Cl)c3OC[C@H]2C1 .
OUT: 8.03

IN: Please report pIC50 with KRAS G12C mutant NCI-H358 cells for item C=CC(=O)N1CCN2C(=O)c3c(N4C[C@H](O)CC4(C)C)nc(-c4c(O)cccc4F)c(F)c3OC[C@H]2C1 (single isomer, unassigned) .
OUT: 7.57
